Target: PEG-3 (UniProt Q6IN02)
Sequence (Q6IN02 whole entry, looked up): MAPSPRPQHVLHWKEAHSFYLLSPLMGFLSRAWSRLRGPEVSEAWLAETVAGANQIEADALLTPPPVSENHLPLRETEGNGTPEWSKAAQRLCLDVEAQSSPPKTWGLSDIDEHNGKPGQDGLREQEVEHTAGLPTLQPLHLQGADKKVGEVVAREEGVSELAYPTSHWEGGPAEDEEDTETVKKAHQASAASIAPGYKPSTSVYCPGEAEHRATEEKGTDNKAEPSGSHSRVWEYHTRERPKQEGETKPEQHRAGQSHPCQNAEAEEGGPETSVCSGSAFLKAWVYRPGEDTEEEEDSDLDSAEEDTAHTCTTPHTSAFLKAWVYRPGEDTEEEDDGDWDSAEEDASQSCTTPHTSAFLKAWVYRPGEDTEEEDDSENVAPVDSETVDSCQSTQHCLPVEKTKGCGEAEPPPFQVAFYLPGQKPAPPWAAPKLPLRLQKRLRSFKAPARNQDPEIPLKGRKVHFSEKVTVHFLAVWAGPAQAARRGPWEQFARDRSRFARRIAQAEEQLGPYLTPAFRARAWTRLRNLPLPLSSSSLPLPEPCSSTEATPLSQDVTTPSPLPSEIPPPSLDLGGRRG
Assay: Peg3 promoter luciferase inhibitors, potency, dose response, cell-based, HeLa, CREF/GAPDH counter-screen panel (AID 624167)
Settings: HeLa PEG-Prom luciferase reporter, overnight, CREF/GAPDH counter-screens, mean of runs
Activity calls are given as the source filed them.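 The calls were made as follows: active = mean IC50 for reducing PEG3 promoter reporter signal at or below a set limit, with IC50 above the limit in both counter screens; inactive = the rest, including counter screen hits.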
Entry note: the call must match one of 1 = active, 0 = inactive

Per the assay record, what outcome was assigned to O=C(/C=C\Nc1ccc2c(c1)OCO2)c1ccccn1 ?
1

How did this test come out for COc1ccc2c(c1OC)C(=O)N1c3ccccc3C(=O)N(c3ccccc3F)C21 (configuration not stated) ?
1

Can you look up the reported call for O=C(Nc1ncc([N+](=O)[O-])s1)c1ccc2c(c1)OCO2 for me?
1

Assay result, entry Cc1ccc(C2(CCNCc3ccc(N(C)C)cc3)CCOC(C(C)C)C2)cc1 (configuration not stated) — outcome?
0

How did this test come out for COc1ccc2sc(-c3ccc(S(C)(=O)=O)cc3)c(C#Cc3cncn3C)c2c1 ?
0

Can you look up the reported call for COc1ccc(CN(C)C(=O)c2cc(-c3ccccc3)nc3ccc(C)cc23)c(OC)c1OC for me?
0

Hello, I am checking results. What call was entered for CCCC(=O)NC(c1ccc(C(C)C)cc1)c1ccc2cccnc2c1O (configuration not stated) ?
1

// param item: CCCCCCOc1ccc(/C(C)=N/NC2=NCCN2)cc1 ; yields the recorded call
1

// return assay outcome for N#Cc1ccc(Cn2cc(C=O)c3ccccc32)cc1
0

Which outcome did this test record for the compound CCN1CCN(Cc2ccc(NC(=O)c3cc(NC(=O)c4ccno4)cc(OC)c3)cc2C(F)(F)F)CC1 ?
0

What did this assay record as the result for Oc1cccc(C(Nc2nccs2)c2ccc3cccnc3c2O)c1 (configuration not stated) ?
0

The values you see were collected from PubChem BioAssay AID624167.
